Ref: ChEMBL document CHEMBL1759962

Target: Nitric oxide synthase, inducible (Mus musculus) (UniProt P29477)
Sequence (whole entry): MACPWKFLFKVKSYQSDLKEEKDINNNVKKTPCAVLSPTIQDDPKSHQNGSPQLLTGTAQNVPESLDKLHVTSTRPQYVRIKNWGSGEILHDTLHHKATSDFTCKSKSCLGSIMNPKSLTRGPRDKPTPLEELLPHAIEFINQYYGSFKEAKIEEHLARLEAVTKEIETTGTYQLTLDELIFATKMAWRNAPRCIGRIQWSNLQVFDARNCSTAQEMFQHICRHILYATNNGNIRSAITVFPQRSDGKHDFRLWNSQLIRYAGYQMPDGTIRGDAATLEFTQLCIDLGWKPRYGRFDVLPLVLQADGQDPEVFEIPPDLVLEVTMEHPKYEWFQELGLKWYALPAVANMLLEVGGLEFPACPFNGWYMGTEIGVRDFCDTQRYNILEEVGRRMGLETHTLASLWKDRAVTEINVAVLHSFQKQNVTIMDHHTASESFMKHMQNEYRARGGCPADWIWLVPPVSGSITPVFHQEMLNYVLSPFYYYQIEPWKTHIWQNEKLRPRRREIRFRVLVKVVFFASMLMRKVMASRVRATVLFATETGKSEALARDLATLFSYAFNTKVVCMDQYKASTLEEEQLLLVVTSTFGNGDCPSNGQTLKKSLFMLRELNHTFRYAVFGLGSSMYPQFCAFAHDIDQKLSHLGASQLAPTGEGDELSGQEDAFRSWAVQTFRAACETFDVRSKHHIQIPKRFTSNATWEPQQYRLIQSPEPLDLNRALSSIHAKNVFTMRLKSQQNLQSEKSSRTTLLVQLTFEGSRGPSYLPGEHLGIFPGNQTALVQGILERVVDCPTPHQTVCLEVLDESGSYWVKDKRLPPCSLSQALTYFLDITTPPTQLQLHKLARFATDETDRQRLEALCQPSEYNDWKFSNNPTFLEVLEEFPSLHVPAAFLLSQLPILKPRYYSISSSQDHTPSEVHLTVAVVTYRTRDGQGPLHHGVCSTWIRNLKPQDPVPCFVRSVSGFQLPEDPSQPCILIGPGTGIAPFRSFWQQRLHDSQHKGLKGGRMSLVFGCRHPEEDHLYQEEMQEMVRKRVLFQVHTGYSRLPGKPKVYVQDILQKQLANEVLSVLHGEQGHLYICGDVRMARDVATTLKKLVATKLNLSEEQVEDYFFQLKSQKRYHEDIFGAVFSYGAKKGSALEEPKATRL
Experiment: Inhibition of iNOS activity in LPS-stimulated mouse RAW264.7 cells assessed as conversion of L-[…] arginine to L-[3H] citruline per mg of protein at 100 ug/ml after 24 hrs
Assay type: cell-based

{"molecule": "CC1(C)C[C@@H](O)[C@]2(C)CC[C@]3(C)C(=CC[C@@H]4[C@@]5(C)CC[C@H](O)[C@](C)(CO)[C@@H]5CC[C@]43C)[C@@H]2C1 [SOYASAPOGENOL B]", "Activity": "26.6 pmol/min"}

###

We begin with a simple list: items and their reported fold change (FC).
System: RAW264.7
Test: Inhibition of iNOS mRNA expression in LPS-stimulated mouse RAW264.7 cells at 50 ug/ml after 24 hrs by real time fluorescent quantitative real time PCR relative to negative control
Assay type: functional
outcome_measure: fold change (FC)

{"chemical_string": "CC1(C)C[C@H]2C3=CC[C@@H]4[C@@]5(C)CC[C@H](O[C@@H]6O[C@H](C(=O)O)[C@@H](O)[C@H](O)[C@H]6O[C@@H]6O[C@H](CO)[C@H](O)[C@H](O)[C@H]6O[C@@H]6O[C@H](CO)[C@@H](O)[C@H](O)[C@H]6O)[C@](C)(CO)[C@@H]5CC[C@@]4(C)[C@]3(C)CC[C@@]2(C)[C@H](O[C@@H]2OC[C@H](O)[C@@H](O)[C@H]2O[C@@H]2O[C@H](CO)[C@@H](O)[C@@H](O)[C@H]2O)[C@@H]1O", "outcome_measure": "fold change (FC)", "value": 11.3}
{"chemical_string": "CC1(C)C[C@H]2C3=CC[C@@H]4[C@@]5(C)CC[C@H](O)[C@](C)(CO)[C@@H]5CC[C@@]4(C)[C@]3(C)CC[C@@]2(C)[C@H](O)[C@@H]1O", "outcome_measure": "fold change (FC)", "value": 15}
{"chemical_string": "C[C@@H]1O[C@@H](O[C@H]2[C@H](O[C@H]3[C@H](O[C@H]4CC[C@@]5(C)[C@@H](CC[C@]6(C)[C@@H]5CC=C5[C@@H]7CC(C)(C)C[C@@H](O)[C@]7(C)CC[C@]56C)[C@@]4(C)CO)O[C@H](C(=O)O)[C@@H](O)[C@@H]3O)O[C@H](CO)[C@H](O)[C@@H]2O)[C@H](O)[C@H](O)[C@H]1O", "outcome_measure": "fold change (FC)", "value": 8.8}
{"chemical_string": "CC1(C)C[C@H]2C3=CC[C@@H]4[C@@]5(C)CC[C@H](O[C@@H]6O[C@H](C(=O)O)[C@@H](O)[C@H](O)[C@H]6O[C@@H]6O[C@H](CO)[C@@H](O)[C@@H](O)[C@H]6O)[C@](C)(CO)[C@@H]5CC[C@@]4(C)[C@]3(C)CC[C@@]2(C)[C@H](O[C@@H]2OC[C@H](O)[C@@H](O)[C@H]2O[C@@H]2O[C@H](CO)[C@@H](O)[C@@H](O)[C@H]2O)[C@@H]1O", "outcome_measure": "fold change (FC)", "value": 10.7}
{"chemical_string": "CC1(C)C[C@@H](O)[C@]2(C)CC[C@]3(C)C(=CC[C@@H]4[C@@]5(C)CC[C@H](O)[C@](C)(CO)[C@@H]5CC[C@]43C)[C@@H]2C1", "outcome_measure": "fold change (FC)", "value": 14.8}
